- tested system: rat 5-HT1A receptor (Rattus norvegicus)
measurement name: Ki (nM)
Write the answer as a number in nM, unit excluded.

API: value(readout= Ki, system= rat 5-HT1A receptor (Rattus norvegicus), query= "CNC(=O)c1ccc2ccn(C3CCN(CCc4c(OC)ccc5c4OC(C)(C)CC5=O)CC3)c2c1.O=C(O)/C=C/C(=O)O" )
0.045

----------
- tested system: 5-HT1A receptors (Rattus norvegicus, UniProt P19327)
- Construct: occupancy of 5-HT1A receptors in living Sprague-Dawley rat brains; from tissue; host or cells: living Sprague-Dawley rat brain (medial prefrontal cortex, dorsal raphe nucleus), in vivo PET
- assay text: PET 5-HT1A receptor occupancy, time-course study (effect compartment model)
- Assay type: in vivo, Sprague-Dawley rat
- setup conditions: DRN; time-course study; read-out: EC50 for 5-HT1A RO, value in parentheses (free concentration-based)
measurement name: pEC50
Conceptually, pEC50 converts a concentration in mol/L into minus its log10.

Item "CNC(=O)c1ccc2ccn(C3CCN(CCc4c(OC)ccc5c4OC(C)(C)CC5=O)CC3)c2c1.O=C(O)/C=C/C(=O)O" has what recorded pEC50?
9.36

----------
- tested system: 5-HT1A receptors (Rattus norvegicus)
- Construct: occupancy of 5-HT1A receptors in living Sprague-Dawley rat brains; from tissue; host or cells: living Sprague-Dawley rat brain (medial prefrontal cortex, dorsal raphe nucleus), in vivo PET
- Sequence (P19327 1-422): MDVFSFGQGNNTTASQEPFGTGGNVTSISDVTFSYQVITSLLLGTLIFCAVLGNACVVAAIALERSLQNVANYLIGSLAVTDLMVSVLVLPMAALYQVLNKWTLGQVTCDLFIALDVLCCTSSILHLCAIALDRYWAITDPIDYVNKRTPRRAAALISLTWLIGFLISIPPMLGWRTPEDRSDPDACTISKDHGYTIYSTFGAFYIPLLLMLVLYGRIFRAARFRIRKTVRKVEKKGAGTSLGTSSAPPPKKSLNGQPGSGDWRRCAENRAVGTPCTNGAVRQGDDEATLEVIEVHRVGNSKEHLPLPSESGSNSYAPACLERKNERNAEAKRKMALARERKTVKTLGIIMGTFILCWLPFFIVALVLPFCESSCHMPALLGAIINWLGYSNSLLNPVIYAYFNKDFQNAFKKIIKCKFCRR
- assay text: PET 5-HT1A receptor occupancy, time-course study (effect compartment model)
- Type: in vivo, Sprague-Dawley rat
- setup conditions: Sprague-Dawley, rat; effect compartment model, 1 mg/kg oral, male SD rats; read-out: CNS equilibration t1/2 (from ke0) (converted)
measurement name: half-life (h)
Write the answer as a number in h, unit excluded.

API: value(readout= half-life, system= 5-HT1A receptors (Rattus norvegicus), query= "CNC(=O)c1ccc2ccn(C3CCN(CCc4c(OC)ccc5c4OC(C)(C)CC5=O)CC3)c2c1.O=C(O)/C=C/C(=O)O" )
1.4

----------
- assay text: PK study in rats (oral)
- Type: in vivo
- setup conditions: Sprague-Dawley, rat, plasma; Female SD, 1 mg/kg oral
- Description: E2110 was administered orally to male and female SD rats, (4 animals/sex) at a dose of 1 mg/kg. Blood samples were collected from the jugular veins by heparinized syringes at 0.25, 0.5, 1, 2, 4, 6, and 8 hours after dosing. Concentrations of E2110 were determined in plasma or PBS by liquid chromatography - tandem mass spectrometry. […] E2110 was monitored using mass transitions of 490.4/459.2. Tamsulosin was used as an internal standard, and was monitored using a mass transition of 409.3/200.0. […]
measurement name: Cmax (ng/mL)
Write the answer as a number in ng/mL, unit excluded.

Item CNC(=O)c1ccc2ccn(C3CCN(CCc4c(OC)ccc5c4OC(C)(C)CC5=O)CC3)c2c1.O=C(O)/C=C/C(=O)O [E2110] has what recorded Cmax?
126
